# system: Somatostatin receptor type 3 (Homo sapiens, UniProt P32745)
# Sequence (P32745 whole entry): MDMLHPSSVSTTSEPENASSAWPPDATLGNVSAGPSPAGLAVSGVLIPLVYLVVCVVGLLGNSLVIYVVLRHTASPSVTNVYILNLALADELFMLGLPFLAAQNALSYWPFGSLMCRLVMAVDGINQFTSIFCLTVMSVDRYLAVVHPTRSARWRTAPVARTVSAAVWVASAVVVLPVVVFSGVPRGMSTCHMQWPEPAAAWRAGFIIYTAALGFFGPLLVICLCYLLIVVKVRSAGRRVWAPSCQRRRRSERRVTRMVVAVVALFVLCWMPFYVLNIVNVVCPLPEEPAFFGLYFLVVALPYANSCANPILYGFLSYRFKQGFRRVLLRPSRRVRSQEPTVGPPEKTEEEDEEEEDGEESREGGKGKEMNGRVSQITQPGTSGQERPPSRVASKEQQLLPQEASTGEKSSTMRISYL
# assay-text: Induction of sst3 receptor internalization in human HEK cells after 30 mins by immunofluorescence microscopy
# Format: cell-based
# conditions: HEK293
Activity calls are given as the source filed them. No cut-off for these calls is given here. Where a SMILES comes first, the peptide text is derived from it. Bridges are numbered along the chain shown (N, C = ends). [ ]: non-standard residue; d: D form.
Tick one outcome: YES (active), NO (inactive)

Examples with answers:
molecule	qualitative-label
C[C@@H](O)[C@@H]1NC(=O)[C@H](CCCCN)NC(=O)[C@@H](Cc2cn(Cc3ccccc3)cn2)NC(=O)[C@H](Cc2ccccc2)NC(=O)[C@H](Cc2ccccc2)NC(=O)[C@@H](N)CSSC[C@@H](C(=O)O)NC(=O)[C@H](Cc2ccccc2)NC1=O	NO
C[C@H](N)C(=O)NCC(=O)N[C@H]1CSSC[C@@H](C(=O)O)NC(=O)[C@H](CO)NC(=O)[C@H]([C@@H](C)O)NC(=O)[C@H](Cc2ccccc2)NC(=O)[C@H]([C@@H](C)O)NC(=O)[C@H](CCCCN)NC(=O)[C@H](Cc2ccc(O)cc2)NC(=O)[C@H](Cc2ccccc2)NC(=O)[C@H](Cc2ccccc2)NC(=O)[C@H](CC(N)=O)NC(=O)[C@H](CCCCN)NC1=O	YES
C[C@@H](O)[C@@H]1NC(=O)[C@H](CCCCN)NC(=O)[C@@H](Cc2ccc3ccccc3c2)NC(=O)[C@H](Cc2ccccc2)NC(=O)[C@H](Cc2ccccc2)NC(=O)[C@@H](N)CSSC[C@@H](C(=O)O)NC(=O)[C@H](Cc2ccccc2)NC1=O	YES

Data request: Fill in: this test's call for C[C@@H](O)[C@@H]1NC(=O)[C@H](CCCCN)NC(=O)[C@@H](Cc2c[nH]c3ccccc23)NC(=O)[C@H](Cc2ccccc2)NC(=O)[C@H](Cc2ccccc2)NC(=O)[C@@H](N)CSSC[C@@H](C(=O)O)NC(=O)[C@H](Cc2ccccc2)NC1=O (H-CFF[dW]KTFC-OH; disulfide 1-8) is ___
Data returned: YES

Data request: Fill in: this test's call for `C[C@@H](O)[C@@H]1NC(=O)[C@H](CCCCN)NC(=O)[C@H](Cc2cn(Cc3ccccc3)cn2)NC(=O)[C@H](Cc2ccccc2)NC(=O)[C@H](Cc2ccccc2)NC(=O)[C@@H](N)CSSC[C@@H](C(=O)O)NC(=O)[C@H](Cc2ccccc2)NC1=O` is ___
Data returned: NO

Data request: Fill in: this test's call for `C[C@H](N)C(=O)NCC(=O)N[C@H]1CSSC[C@@H](C(=O)O)NC(=O)[C@H](CO)NC(=O)[C@H]([C@@H](C)O)NC(=O)[C@H](Cc2ccccc2)NC(=O)[C@H]([C@@H](C)O)NC(=O)[C@H](CCCCN)NC(=O)[C@H](Cc2cn(Cc3ccccc3)cn2)NC(=O)[C@H](Cc2ccccc2)NC(=O)[C@H](Cc2ccccc2)NC(=O)[C@H](CC(N)=O)NC(=O)[C@H](CCCCN)NC1=O` is ___
Data returned: YES

Data request: Fill in: this test's call for `C[C@H](N)C(=O)NCC(=O)N[C@H]1CSSC[C@@H](C(=O)O)NC(=O)[C@H](CO)NC(=O)[C@H]([C@@H](C)O)NC(=O)[C@H](Cc2ccccc2)NC(=O)[C@H]([C@@H](C)O)NC(=O)[C@H](CCCCN)NC(=O)[C@@H](Cc2ccc3ccccc3c2)NC(=O)[C@H](Cc2ccccc2)NC(=O)[C@H](Cc2ccccc2)NC(=O)[C@H](CC(N)=O)NC(=O)[C@H](CCCCN)NC1=O` is ___
Data returned: YES

Data request: Fill in: this test's call for `C[C@H](N)C(=O)NCC(=O)N[C@H]1CSSC[C@@H](C(=O)O)NC(=O)[C@H](CO)NC(=O)[C@H]([C@@H](C)O)NC(=O)[C@H](Cc2ccccc2)NC(=O)[C@H]([C@@H](C)O)NC(=O)[C@H](CCCCN)NC(=O)[C@H](Cc2ccc3ccccc3c2)NC(=O)[C@H](Cc2ccccc2)NC(=O)[C@H](Cc2ccccc2)NC(=O)[C@H](CC(N)=O)NC(=O)[C@H](CCCCN)NC1=O` is ___
Data returned: YES

====

# system: Somatostatin receptor type 3 (Homo sapiens, UniProt P32745)
# assay-text: Displacement of 125I-[LTT]-SRIF-28 from human sst3 receptor in CCL39 cells after 2 hrs by autoradiography
Reported pIC50 values are given for each entry in this list.
# reply with the number alone; pIC50 is -log10 of concentration in mol/L

test-smiles	pIC50
C[C@@H](O)[C@@H]1NC(=O)[C@H](CCCCN)NC(=O)[C@@H](Cc2ccc3ccccc3c2)NC(=O)[C@H](Cc2ccccc2)NC(=O)[C@H](Cc2ccccc2)NC(=O)[C@@H](N)CSSC[C@@H](C(=O)O)NC(=O)[C@H](Cc2ccccc2)NC1=O	8.17

Data request: What value of pIC50 has been reported for the following compound? `C[C@H](N)C(=O)NCC(=O)N[C@H]1CSSC[C@@H](C(=O)O)NC(=O)[C@H](CO)NC(=O)[C@H]([C@@H](C)O)NC(=O)[C@H](Cc2ccccc2)NC(=O)[C@H]([C@@H](C)O)NC(=O)[C@H](CCCCN)NC(=O)[C@H](Cc2ccc(O)cc2)NC(=O)[C@H](Cc2ccccc2)NC(=O)[C@H](Cc2ccccc2)NC(=O)[C@H](CC(N)=O)NC(=O)[C@H](CCCCN)NC1=O`
Data returned: 7.89

====

Reported pIC50 values are given for each entry in this list.
# system: Somatostatin receptor type 4 (Homo sapiens)
# Sequence (P31391 whole entry): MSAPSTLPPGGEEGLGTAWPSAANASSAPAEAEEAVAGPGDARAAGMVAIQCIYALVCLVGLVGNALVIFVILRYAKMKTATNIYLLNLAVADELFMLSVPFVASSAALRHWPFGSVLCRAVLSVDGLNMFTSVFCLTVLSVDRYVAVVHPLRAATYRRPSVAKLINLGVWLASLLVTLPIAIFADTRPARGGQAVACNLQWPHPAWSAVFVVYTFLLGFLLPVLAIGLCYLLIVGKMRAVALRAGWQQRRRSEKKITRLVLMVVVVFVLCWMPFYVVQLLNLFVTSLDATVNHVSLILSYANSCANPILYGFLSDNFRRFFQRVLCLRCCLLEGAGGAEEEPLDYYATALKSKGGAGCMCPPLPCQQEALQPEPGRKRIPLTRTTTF
# assay-text: Displacement of 125I-[LTT]-SRIF-28 from human sst4 receptor in CCL39 cells after 2 hrs by autoradiography
# reply with the number alone; pIC50 is -log10 of concentration in mol/L

test-smiles	system	pIC50
C[C@H](N)C(=O)NCC(=O)N[C@H]1CSSC[C@@H](C(=O)O)NC(=O)[C@H](CO)NC(=O)[C@H]([C@@H](C)O)NC(=O)[C@H](Cc2ccccc2)NC(=O)[C@H]([C@@H](C)O)NC(=O)[C@H](CCCCN)NC(=O)[C@H](Cc2ccc3ccccc3c2)NC(=O)[C@H](Cc2ccccc2)NC(=O)[C@H](Cc2ccccc2)NC(=O)[C@H](CC(N)=O)NC(=O)[C@H](CCCCN)NC1=O	Somatostatin receptor type 4 (Homo sapiens)	7.92

Continue with the next compound.
Data request: What value of pIC50 has been reported for the following compound? `C[C@H](N)C(=O)NCC(=O)N[C@H]1CSSC[C@@H](C(=O)O)NC(=O)[C@H](CO)NC(=O)[C@H]([C@@H](C)O)NC(=O)[C@H](Cc2ccccc2)NC(=O)[C@H]([C@@H](C)O)NC(=O)[C@H](CCCCN)NC(=O)[C@@H](Cc2ccc(O)cc2)NC(=O)[C@H](Cc2ccccc2)NC(=O)[C@H](Cc2ccccc2)NC(=O)[C@H](CC(N)=O)NC(=O)[C@H](CCCCN)NC1=O`
Data returned: 7.80

====

# system: Somatostatin receptor type 5 (Homo sapiens, UniProt P35346)
# Sequence (P35346 whole entry): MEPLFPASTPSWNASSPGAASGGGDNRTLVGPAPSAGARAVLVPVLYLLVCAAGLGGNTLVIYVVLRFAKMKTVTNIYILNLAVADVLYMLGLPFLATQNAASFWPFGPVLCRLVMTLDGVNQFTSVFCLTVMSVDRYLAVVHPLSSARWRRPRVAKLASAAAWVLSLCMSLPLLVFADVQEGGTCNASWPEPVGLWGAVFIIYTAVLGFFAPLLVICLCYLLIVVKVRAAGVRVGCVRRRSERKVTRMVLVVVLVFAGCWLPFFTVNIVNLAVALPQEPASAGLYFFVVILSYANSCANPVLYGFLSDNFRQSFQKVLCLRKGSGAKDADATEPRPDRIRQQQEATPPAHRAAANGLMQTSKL
# assay-text: Displacement of 125I-[LTT]-SRIF-28 from human sst5 receptor in HEK293 cells after 2 hrs by autoradiography
Where a SMILES comes first, the peptide text is derived from it. Bridges are numbered along the chain shown (N, C = ends). [ ]: non-standard residue; d: D form.
Reported IC50 values are given for each entry in this list.
Report the figure in nM without appending any unit label.

// solved cases for IC50 follow
molecule	value-unit	IC50
C[C@H](N)C(=O)NCC(=O)N[C@H]1CSSC[C@@H](C(=O)O)NC(=O)[C@H](CO)NC(=O)[C@H]([C@@H](C)O)NC(=O)[C@H](Cc2ccccc2)NC(=O)[C@H]([C@@H](C)O)NC(=O)[C@H](CCCCN)NC(=O)[C@@H](Cc2ccc(O)cc2)NC(=O)[C@H](Cc2ccccc2)NC(=O)[C@H](Cc2ccccc2)NC(=O)[C@H](CC(N)=O)NC(=O)[C@H](CCCCN)NC1=O	nM	41
C[C@H](N)C(=O)NCC(=O)N[C@H]1CSSC[C@@H](C(=O)O)NC(=O)[C@H](CO)NC(=O)[C@H]([C@@H](C)O)NC(=O)[C@H](Cc2ccccc2)NC(=O)[C@H]([C@@H](C)O)NC(=O)[C@H](CCCCN)NC(=O)[C@@H](Cc2ccc3ccccc3c2)NC(=O)[C@H](Cc2ccccc2)NC(=O)[C@H](Cc2ccccc2)NC(=O)[C@H](CC(N)=O)NC(=O)[C@H](CCCCN)NC1=O	nM	2.4
C[C@@H](O)[C@@H]1NC(=O)[C@H](CCCCN)NC(=O)[C@@H](Cc2ccc3ccccc3c2)NC(=O)[C@H](Cc2ccccc2)NC(=O)[C@H](Cc2ccccc2)NC(=O)[C@@H](N)CSSC[C@@H](C(=O)O)NC(=O)[C@H](Cc2ccccc2)NC1=O	nM	6
C[C@H](N)C(=O)NCC(=O)N[C@H]1CSSC[C@@H](C(=O)O)NC(=O)[C@H](CO)NC(=O)[C@H]([C@@H](C)O)NC(=O)[C@H](Cc2ccccc2)NC(=O)[C@H]([C@@H](C)O)NC(=O)[C@H](CCCCN)NC(=O)[C@H](Cc2ccc3ccccc3c2)NC(=O)[C@H](Cc2ccccc2)NC(=O)[C@H](Cc2ccccc2)NC(=O)[C@H](CC(N)=O)NC(=O)[C@H](CCCCN)NC1=O	nM	69
C[C@@H](O)[C@@H]1NC(=O)[C@H](CCCCN)NC(=O)[C@H](Cc2c[nH]c3ccccc23)NC(=O)[C@H](Cc2ccccc2)NC(=O)[C@H](Cc2ccccc2)NC(=O)[C@@H](N)CSSC[C@@H](C(=O)O)NC(=O)[C@H](Cc2ccccc2)NC1=O (H-CFFWKTFC-OH; disulfide 1-8)	nM	16

Continue with the next molecule.
Data request: What value of IC50 has been reported for the following molecule? C[C@@H](O)[C@@H]1NC(=O)[C@H](CCCCN)NC(=O)[C@@H](Cc2c[nH]c3ccccc23)NC(=O)[C@H](Cc2ccccc2)NC(=O)[C@H](Cc2ccccc2)NC(=O)[C@@H](N)CSSC[C@@H](C(=O)O)NC(=O)[C@H](Cc2ccccc2)NC1=O (H-CFF[dW]KTFC-OH; disulfide 1-8)
Data returned: 2.6
